measurementTarget: Peroxisome proliferator-activated receptor gamma (Homo sapiens) (UniProt P37231)
Sequence (P37231 whole entry, looked up): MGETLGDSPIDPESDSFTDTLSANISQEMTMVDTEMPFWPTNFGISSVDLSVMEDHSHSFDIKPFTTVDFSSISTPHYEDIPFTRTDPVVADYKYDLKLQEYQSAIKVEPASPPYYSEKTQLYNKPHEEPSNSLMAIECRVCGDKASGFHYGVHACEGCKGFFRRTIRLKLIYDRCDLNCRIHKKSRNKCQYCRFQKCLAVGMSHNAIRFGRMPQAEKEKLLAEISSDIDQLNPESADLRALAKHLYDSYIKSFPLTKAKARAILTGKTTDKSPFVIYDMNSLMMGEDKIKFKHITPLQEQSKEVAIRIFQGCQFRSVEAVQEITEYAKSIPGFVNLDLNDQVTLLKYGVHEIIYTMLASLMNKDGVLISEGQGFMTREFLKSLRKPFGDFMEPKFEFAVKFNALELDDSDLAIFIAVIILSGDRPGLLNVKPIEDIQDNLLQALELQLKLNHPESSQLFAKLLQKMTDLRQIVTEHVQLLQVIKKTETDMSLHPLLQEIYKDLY
methodDescription: NVS_NR_hPPARg: NovaScreen (NVS) Nuclear Receptor Binding Assay for human Peroxisome Proliferator-activated Receptor gamma (PPARg) (AID 2283370)
Inconclusive results are not listed. Calls of active or inactive are those of the source. How the source made its calls: active means hit-call score of the fitted dose curve at least 0.9, where 1 is the maximum; inconclusive means response in the unintended direction; inactive means score below 0.9.
Possible outcomes: y for active, n for inactive

| compound | classification |
| --- | --- |
| COP(=O)(OC)OC=C(Cl)Cl | y |
| CC(C)(C)C(O)/C(=C\c1ccc(Cl)cc1Cl)n1cncn1 (stereo not drawn) | n |
| O=C(O)CCCOc1ccc(Cl)cc1Cl | n |
| CCCN(CCOc1c(Cl)cc(Cl)cc1Cl)C(=O)n1ccnc1 | n |
| N#Cc1c(Cl)c(Cl)c(Cl)c(C#N)c1Cl | y |
| CC1(C)C(C=C(Cl)Cl)C1C(=O)OC(C#N)c1ccc(F)c(Oc2ccccc2)c1 (stereo not drawn) | n |
| O=[N+]([O-])c1c(Cl)c(Cl)c(Cl)c(Cl)c1Cl | y |
| CC1(c2ccc(Oc3ccccc3)cc2)OC(=O)N(Nc2ccccc2)C1=O (stereo not drawn) | n |
| O=S1OCC2C(CO1)C1(Cl)C(Cl)=C(Cl)C2(Cl)C1(Cl)Cl (stereo not drawn) | n |
| O=S(=O)(O)C(F)(F)C(F)(F)C(F)(F)C(F)(F)C(F)(F)C(F)(F)C(F)(F)C(F)(F)F | y |
| CCOc1nc(NC)nc(NC(=O)NS(=O)(=O)c2ccccc2C(=O)OC)n1 | n |
| CCC(C)Nc1c([N+](=O)[O-])cc(C(C)(C)C)cc1[N+](=O)[O-] (stereo not drawn) | n |
| O=C1c2ccccc2C(=O)N1SC(Cl)(Cl)Cl | n |
